conditions: 298.15 K; 101.33 kPa; Liquid; Vibrating tube method
Numbers after ± are expanded uncertainties.
Please provide measured mass density for the entries that follow.

Some molecules with known mass density results, for comparison:
molecule="CCCCCCCCC [nonane]" recorded_measurement="713.99 ± 0.25 kg/m3"
molecule="CCOS(=O)(=O)[O-].CCn1cc[n+](C)c1 [1-ethyl-3-methylimidazolium ethyl sulfate]" recorded_measurement="1237.23 ± 0.43 kg/m3"
molecule="CCCCCCC [heptane]" recorded_measurement="679.56 ± 0.18 kg/m3"
molecule="CCCCCC [hexane]" recorded_measurement="655.19 ± 0.25 kg/m3"
molecule="c1ccccc1 [benzene]" recorded_measurement="873.57 ± 0.1 kg/m3"

Now look at this entry.
Using known records, supply mass density for CCCCCCCC [octane]
698.6 ± 0.18 kg/m3
